// provenance: ChEMBL document CHEMBL1145774

measured target: Adenosine receptor A1 (Homo sapiens) (UniProt P30542)
Sequence (P30542 whole entry): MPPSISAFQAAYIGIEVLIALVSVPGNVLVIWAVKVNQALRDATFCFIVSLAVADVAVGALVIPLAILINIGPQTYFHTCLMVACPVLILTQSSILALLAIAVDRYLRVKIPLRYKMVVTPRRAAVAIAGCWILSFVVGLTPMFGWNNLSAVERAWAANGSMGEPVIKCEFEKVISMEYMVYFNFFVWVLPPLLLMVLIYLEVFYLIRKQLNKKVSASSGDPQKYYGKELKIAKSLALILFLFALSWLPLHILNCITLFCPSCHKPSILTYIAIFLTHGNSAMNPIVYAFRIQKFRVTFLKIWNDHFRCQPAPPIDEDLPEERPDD
measurement notes: Percent change in cAMP content of CHO (Chinese hamster ovary) cells expressing human Adenosine A1 receptor at 0.01 uM
Type: functional, cell-based

{"molecule": "Nc1sc2c(c1C(=O)c1cccc3ccccc13)CCC2", "Change": "-0.6%"}
{"molecule": "Nc1sc2c(c1C(=O)c1cccc3ccccc13)CCC(Cc1ccccc1)C2 (configuration not stated)", "Change": "-8%"}
{"molecule": "Nc1sc2c(c1C(=O)c1ccc(Br)c3ccccc13)CCCC2", "Change": "-6%"}
{"molecule": "COc1ccc(C(=O)c2c(N)sc3c2CCN(Cc2ccccc2)C3)c2ccccc12", "Change": "-0%"}
{"molecule": "Nc1sc2c(c1C(=O)c1ccc(Cl)c3ccccc13)CCN(Cc1ccccc1)C2", "Change": "3%"}
{"molecule": "Nc1sc2c(c1C(=O)c1ccc3ccccc3c1)CCN(Cc1ccc(F)cc1)C2", "Change": "-11%"}
{"molecule": "COc1ccc(C(=O)c2c(N)sc3c2CCC3)c2ccccc12", "Change": "-6%"}
{"molecule": "Cc1sc(N)c(C(=O)c2ccc(I)c3ccccc23)c1C", "Change": "-5%"}
{"molecule": "Nc1sc2c(c1C(=O)c1ccc3c(c1)Cc1ccccc1-3)CCC2", "Change": "-3%"}
{"molecule": "Cc1ccc(C(=O)c2c(N)sc3c2CCCC3)c2ccccc12", "Change": "17%"}
{"molecule": "Nc1sc2c(c1C(=O)c1ccc3ccccc3c1)CCN(Cc1cccc(Cl)c1)C2", "Change": "9%"}
{"molecule": "Nc1sc2c(c1C(=O)c1ccc3c(c1)Cc1ccccc1-3)CCCC2", "Change": "7%"}
